Each entry below lists one item and its recorded pKd value.
target: SNAP-25 peptide comprising amino acids 134-197 of SEQ ID NO: 5 (human); experiment: SPR (BIAcore 3000), peptide on CM5 chip, antibody in flow
Would you please state pKd, meaning minus log10 of the concentration in mol/L, as a bare number?

BINDER: α-SNAP-25 monoclonal antibody 2C9B10 (antibody, V domains shown) VH: QVKLQESGAELVKPGASVKISCKASGYTFTDHSIHWVKQKPGQGLEWIGYLFPGNGNFEYNEKFKGKATLTADKSSSTAYMHLNSLTSEDSAVYFCKKMDYWGQGTTVTVSS VL: DIQMTQSPASLSASVGETVTITCRTTENIYSYFVWSQQRQGKSPQLRVYNAKSLAEGVPSSFNVSVSGTQFSLKINSLQPEDFGTYHCQHHYGTPYTFGGGTRLEIRR
READING: 7.57
//
BINDER: α-SNAP-25 monoclonal antibody 3C1A5 (antibody, V domains shown) VH: QVKLQESGAELVKPGASVKISCKASGYTFTDHSIHWVKQKPGQGLEWIGYLFPGNGNFEYNEKFKGKATLTADKSSSTVYMYLNSLTSEDSAVYFCKRMGYWGQGTTVTVSS VL: DVVMTQTPLTLSVTIGQPASISCKSSQSLLNTNGKTYLTWLIQRPGQSPQRLIYLVSKLDSGVPDRFSGSGSGTDFTLKISRVEAEDLGVYYCLQSSHFPFTFGSGTKLEIKR
READING: 8.88
//
BINDER: α-SNAP-25 monoclonal antibody 1D3B8 (antibody, V domains shown) VH: QVKLQESGAELVKPGASVKISCKASGYIFTDHALHWVRQKPEQGLEWIGYIFPGNGNIEYNEKFKGKATLTADKSSSTAYMQLNSLTSGDSAMYFCKKMDYWGQGTTVTVSS VL: DVLMTQTPLSLPVSLGDQASISCRSSQSIVHSNGNTYLEWYLQKPGQSPKLLIYKVSNRFSGVPDRFSGSGSGTDFTLKISRVEAEDLGVYYCFQGSHVPPTFGAGTKLELKR
READING: 10.30

Please look up its pKd: α-SNAP-25 monoclonal antibody 2E2A6 (antibody, V domains shown) VH: QVQLQQSDAELVKPGASVKISCRASGYTFTDHSIHWVKQQPGQGLEWIGYIFPGNGNIEYNDKFKGKATLTADKSSGTAYMQLNSLTSEDSAVYFCKRMGYWGQGTSVTVSS VL: DVLMTQTPLTLSVTIGQPASISCKSSQSLLYTNGKTYLTWLFQRPGQSPKRLIYLVSELDSGVPDRFSGSGSGTDFTLEITRVEAEDLGVYYCLQSAHFPFTFGSGTKLEIKR
10.05
